- protocol.notes: Solubility of the compound in FaSSIF
- Type: physicochemical
The reader will find reported solubility values listed item by item below.
Give the number; µg/mL is assumed, so skip it.

In [3]: df
Out[3]:
                           substance_smiles  measured_quantity  measurement
0  O=c1[nH]c2cc(Br)ccc2c2[nH]c(-c3ccccc3Cl)nc12         solubility          0.9
1  O=c1[nH]c2cc(-c3ccccc3)ccc2c2nc(-c3ccccc3Cl)[nH]c12         solubility            1
2  O=c1[nH]c2cc(-c3cccc(Cl)c3)ccc2c2nc(-c3c(F)cccc3Cl)[nH]c12         solubility          0.5

Next up:
Query block: For O=c1[nH]c2cc(-c3ccccc3)ccc2c2nc(-c3c(F)cccc3Cl)[nH]c12 , what is its reported solubility?
Result block: 1
